assay: Novel Modifiers of Survival Motor Neuron (SMN) Protein: Gene Identification via Genome-wide siRNA Screen; details: HEK293T SMN2-luciferase reporter, siRNA knockdown, 72 h; actives lie on both sides;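 also: luminescence tracks full-length SMN protein made from the SMN2 reporter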
In all, about 31,000 sequences went through this assay and about 1,400 (4.5%) were called active. Shown is part of a subset that was picked to be rich in actives.
quantity_measured: median seed-adjusted z-score
Field format: numeric only.

| sequence_record | median seed-adjusted z-score |
| --- | --- |
| CCACUUCAAGAAAACUUCATT against ZSCAN22 | 0.277 |
| AGCUUUCUUGAGCACCUGATT against LRRC32 | 0.0464 |
| GGUUUGCCCUUAUCUUGUATT against RDH10 | -0.28 |
| GAAUCUGGUGGGCCCUUUATT against POFUT2 | -0.86 |
| CACCUGCUAUGUUACGGGATT against BAT2 | 0.0889 |
| CAGAUUACGUUUAUAAGAATT against ZNF274 | 0.452 |
| GUAACACCGUUGAAGCUAATT against E2F8 | 0.209 |
| GCUAGAGAUUGACCAGAAATT against NUDC | -0.227 |
| GUCUCGAUGGAGCAAAGUATT against TCERG1 | 0.415 |
| GAGACAAACUAAUUGAGAATT against PPP1R8 | -0.029 |

Return median seed-adjusted z-score for the following sequence: GAUAUGUAUUCAUACUAAUTT against SNX10
0.391

Return median seed-adjusted z-score for the following sequence: AUACGGCUCUAACAGAUUATT against DBI
0.0661

Return median seed-adjusted z-score for the following sequence: GGACAAUGUUGGGAAUAGATT against GPATCH2
0.0828

---

Assay: Novel Modifiers of Survival Motor Neuron (SMN) Protein: Gene Identification via Genome-wide siRNA Screen;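 also: luminescence tracks full-length SMN protein made from the SMN2 reporter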
Details: HEK293T SMN2-luciferase reporter, siRNA knockdown, 72 h; actives lie on both sides
Experimental: Spinal muscular atrophy (SMA) is the most common neuromuscular autosomal recessive disorder and one of the leading genetic causes of infant death. […] Briefly, 1 pmol of each siRNA was spotted to a well of a 384-well plate (Corning, Corning, NY) and 20 microL of serum-free DMEM containing […] of Lipofectamine RNAiMax (Life Technologies, Carlsbad, CA) was then added to each well. […] Raw luminescence reads were normalized to Ambion(R) Silencer(R) Negative Control #2 siRNA, then log10 transformed. […]
Screen size: about 31,000 sequences; about 1,400 (4.5%) were called active. The sample as a whole holds a higher share of actives than the screen did.
quantity_measured: median seed-adjusted z-score
Field format: numeric only.

| sequence_record | numeric_value |
| --- | --- |
| AGUAAUAGUUCAAACCUUUTT against ZNF664 | 1.08 |
| CAAUGUUACCAAAACCGAATT against ACVR1C | -0.0005 |

Return median seed-adjusted z-score for the following sequence: CCAGAUAAAUCUAUAGCAATT against RCOR1
-1.13

---

test: Novel Modifiers of Survival Motor Neuron (SMN) Protein: Gene Identification via Genome-wide siRNA Screen; settings: HEK293T SMN2-luciferase reporter, siRNA knockdown, 72 h; actives lie on both sides;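 also: luminescence tracks full-length SMN protein made from the SMN2 reporter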
The campaign covered roughly 31,000 sequences. About 1,400 (4.5%) were called active. This is one part of a sample in which actives are shown more often than they occur.
Listed sequences paired with reported median seed-adjusted z-score
Field format: numeric only.

Some entries whose results are on file:
| sequence_record | median seed-adjusted z-score |
| --- | --- |
| GCCGUUUGACCAUACAUUATT against SNTB1 | 0.488 |
| AUAAAUACCUCGGACAUUATT against EIF1AX | 0.878 |
| CACUUAUUCUGGUCCUUCATT against ELOVL3 | 0 |

Return median seed-adjusted z-score for the following sequence: CGCGGAAACUUGUCCCUAUTT against SP2
-0.617

Return median seed-adjusted z-score for the following sequence: CUGUUCCAGUUGUGGCUCUTT against KRTAP5-1
0

Return median seed-adjusted z-score for the following sequence: CAGAAUAUAUGACAGGAAATT against YY1
1.94

---

experiment: Novel Modifiers of Survival Motor Neuron (SMN) Protein: Gene Identification via Genome-wide siRNA Screen; conditions: HEK293T SMN2-luciferase reporter, siRNA knockdown, 72 h; actives lie on both sides;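 also: luminescence tracks full-length SMN protein made from the SMN2 reporter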
Among all 31,000 sequences or so, about 1,400 (4.5%) were called active. The full list was thinned out, with actives kept by preference.
Param threshold (-0.1) applies to median seed-adjusted z-score; output 1 when value >= threshold, -1 when value < threshold.

Consider the following illustrative entries.
| sequence_record | assigned_label |
| --- | --- |
| AGAGGAUCAAGGUUUUAAATT against APBA2 | 1 |
| GGUGUAAAAGUGAUUAUAATT against LCLAT1 | 1 |
| AGCUCAUAGCUGACCCAGATT against ZC3H3 | -1 |

hey, is median seed-adjusted z-score for this one >= -0.1? GAGGAACAGGAAUAACAUUTT against GCG
-1

hey, is median seed-adjusted z-score for this one >= -0.1? GUUAUGCCUUUAUUAAUUUTT against SF3B4
-1

hey, is median seed-adjusted z-score for this one >= -0.1? CGAGAGCUCCAGAUCAUGATT against GSK3B
-1

hey, is median seed-adjusted z-score for this one >= -0.1? GACCUUGAAUGUUCAACAUTT against ZNF470
-1

hey, is median seed-adjusted z-score for this one >= -0.1? GUCUGCUUUGUAUAGAUAATT against KLRC3
1

hey, is median seed-adjusted z-score for this one >= -0.1? GGAUCGUGGUUGCAGGGAUTT against DNASE1
-1

hey, is median seed-adjusted z-score for this one >= -0.1? AGGUCAUUGCUGAGAAGUATT against FMNL1
-1

---

assay: Novel Modifiers of Survival Motor Neuron (SMN) Protein: Gene Identification via Genome-wide siRNA Screen; conditions: HEK293T SMN2-luciferase reporter, siRNA knockdown, 72 h; actives lie on both sides;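 also: luminescence tracks full-length SMN protein made from the SMN2 reporter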
Out of some 31,000 sequences screened, about 1,400 (4.5%) were called active. This is one part of a sample in which actives are shown more often than they occur.
# strict inequality: median seed-adjusted z-score < 0.03 yields 1.0, everything else yields 0.0

Consider the following illustrative entries.
| sequence_record | assigned_label |
| --- | --- |
| CGUGUUCAGUGGAAUCACATT against NPC1 | 1.0 |
| UCUACGACGUGGACGGUAATT against RCVRN | 0.0 |
| GGAUUAUCUCCUCAUUACATT against MCF2L2 | 1.0 |
| GCUGCUUCAGACUACCAAATT against TXNDC9 | 1.0 |
| UCUGCUAUUUGGUCCUGAATT against TOMM34 | 1.0 |
| AGAUCUAUGAGAUUGAACATT against PRKAG3 | 1.0 |
| GGUGGUACAAGAGAACGAATT against JARID2 | 0.0 |
| GGACAUUCUAGAGAAAGAATT against SUPT5H | 1.0 |

# strict comparison: is reported median seed-adjusted z-score < 0.03? input = GGUGAUCACCAAGAUCAAATT against ADCY3
1.0

# strict comparison: is reported median seed-adjusted z-score < 0.03? input = GCUAAGAAGAGAUAAUGAATT against MLKL
1.0

# strict comparison: is reported median seed-adjusted z-score < 0.03? input = GCACUGUGCUCGGAAGUUATT against GLS2
1.0

# strict comparison: is reported median seed-adjusted z-score < 0.03? input = GAUGAUAUCCUACUAGGCATT against CD302
0.0

# strict comparison: is reported median seed-adjusted z-score < 0.03? input = CGGUGUGAAGAUGAUCUAATT against DNAJC24
1.0

---

Listed sequences paired with reported median seed-adjusted z-score
assay: Novel Modifiers of Survival Motor Neuron (SMN) Protein: Gene Identification via Genome-wide siRNA Screen; conditions: HEK293T SMN2-luciferase reporter, siRNA knockdown, 72 h; actives lie on both sides;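 also: luminescence tracks full-length SMN protein made from the SMN2 reporter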
In all, about 31,000 sequences went through this assay and about 1,400 (4.5%) were called active. This excerpt belongs to a sample that is enriched for actives.
Field format: numeric only.

| sequence_record | median seed-adjusted z-score |
| --- | --- |
| CCUAUUUGGUGUUAACAUATT against DIRAS1 | -0.751 |
| GUCAGUUGUUAGAACAUAATT against TRIM24 | -0.22 |
| GCCUUCCACGCUUUCCUGATT against RGS16 | 0 |
| CCUUCUCAACAUAGGAUAATT against ZNF257 | 0.306 |
| GAUCAUUGCUGGGAAUCUATT against GPR52 | -1.17 |

Return median seed-adjusted z-score for the following sequence: UCAGUUUGCUGAGAACGAATT against TCEB1
1.08

Return median seed-adjusted z-score for the following sequence: GAUUCAGUGUGGGAGAGUUTT against MCAT
0

Return median seed-adjusted z-score for the following sequence: GAGUUGAAGUUAAAGUAAATT against MORF4
0.0121

Return median seed-adjusted z-score for the following sequence: GCCUCUCACAUCUAUGGUATT against ITIH4
0.64

Return median seed-adjusted z-score for the following sequence: GCUUAUAUGGUGUACAUUUTT against ELOVL6
0.742

Return median seed-adjusted z-score for the following sequence: CCCUAGAUAUGGACGAUGATT against UTP3
-1.08

Return median seed-adjusted z-score for the following sequence: GUCAAAGAGUGACAACUUUTT against CALB2
0

# credit: PubChem BioAssay AID1347426
